# study target: 3-hydroxy-3-methylglutaryl-coenzyme A reductase (Homo sapiens, UniProt P04035)
# Sequence (P04035 whole entry): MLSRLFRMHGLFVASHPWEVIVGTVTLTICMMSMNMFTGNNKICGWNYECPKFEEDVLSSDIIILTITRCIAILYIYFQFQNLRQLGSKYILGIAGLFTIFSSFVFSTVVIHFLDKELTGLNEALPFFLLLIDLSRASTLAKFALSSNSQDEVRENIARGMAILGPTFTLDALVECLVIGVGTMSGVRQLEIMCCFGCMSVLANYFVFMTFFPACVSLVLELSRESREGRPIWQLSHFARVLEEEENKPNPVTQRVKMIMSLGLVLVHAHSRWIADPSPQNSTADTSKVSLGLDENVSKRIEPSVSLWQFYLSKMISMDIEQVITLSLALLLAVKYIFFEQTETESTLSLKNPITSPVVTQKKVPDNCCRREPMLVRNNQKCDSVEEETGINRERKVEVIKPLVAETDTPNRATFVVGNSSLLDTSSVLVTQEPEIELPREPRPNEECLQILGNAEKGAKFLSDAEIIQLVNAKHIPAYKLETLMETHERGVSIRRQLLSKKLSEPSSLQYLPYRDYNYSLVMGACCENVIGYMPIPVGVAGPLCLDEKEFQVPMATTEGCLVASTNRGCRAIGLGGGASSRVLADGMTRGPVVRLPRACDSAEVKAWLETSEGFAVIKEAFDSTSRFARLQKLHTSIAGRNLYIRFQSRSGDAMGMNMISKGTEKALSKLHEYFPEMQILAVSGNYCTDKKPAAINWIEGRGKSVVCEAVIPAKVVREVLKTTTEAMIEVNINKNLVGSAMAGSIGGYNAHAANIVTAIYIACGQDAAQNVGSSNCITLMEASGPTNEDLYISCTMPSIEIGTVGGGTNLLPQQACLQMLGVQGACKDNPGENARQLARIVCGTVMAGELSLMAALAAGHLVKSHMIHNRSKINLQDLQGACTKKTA
readout label: IC50 (µM)

[
  {
    "compound": "CC(C)=C[C@H]1C[C@H](C)[C@]2(CC[C@]3(C)C[C@@H]4C(C)=CC(=O)[C@H]4/C(C=O)=C\\C[C@H]32)O1 [3-ANHYDRO-6-EPI-OPHIOBOLIN A]",
    "result": 8.4
  }
]
